- protocol-text: in vitro
- condition-info: human
Positions of bridges follow the written chain, without caps; N, C: chain ends. Non-standard residues stand in square brackets, D forms with d. Residues, ends and D or L forms follow the SMILES beside them. *: point of attachment. Decanoyl(3R-OH) = CCCCCCC[C@@H](O)CC(=O)*; 2Nal = N[C@@H](Cc1ccc2ccccc2c1)C(=O)O; d2Nal = N[C@H](Cc1ccc2ccccc2c1)C(=O)O; hPhe = N[C@@H](CCc1ccccc1)C(=O)O; Lauroyl = CCCCCCCCCCCC(=O)*; dDab = NCC[C@@H](N)C(=O)O; dDap = NC[C@@H](N)C(=O)O; Dab = NCC[C@H](N)C(=O)O
result-type: CC50 at 24 h (µM)
Report only the number, with the unit µM understood.

Illustrative cases are given below, each with its answer.
compound	result-type	quantitative-result
CCCCCCC[C@@H](O)CC(=O)N[C@H](CCN)C(=O)N[C@H]1CCNC(=O)[C@H](CCc2ccccc2)NC(=O)[C@H](CCN)NC(=O)[C@H](CCN)NC(=O)[C@H](CC(C)C)NC(=O)[C@@H](Cc2ccccc2)NC(=O)[C@H](CCN)NC1=O [compound 8913] ({Decanoyl(3R-OH)}-[dDab][Dab][Dab][dF]L[Dab][Dab][hPhe]; lactam 2-C)	CC50 at 24 h	32
CCCCCCCCCCCC(=O)N[C@H](CN)C(=O)N[C@H]1CCNC(=O)[C@H](CC(C)C)NC(=O)[C@H](CCN)NC(=O)[C@H](CCN)NC(=O)[C@H](CC(C)C)NC(=O)[C@@H](Cc2ccccc2)NC(=O)[C@H](CCN)NC1=O [compound 9297] (Lauroyl-[dDap][Dab][Dab][dF]L[Dab][Dab]L; lactam 2-C)	CC50 at 24 h	33
CCCCCCC[C@@H](O)CC(=O)N[C@H](CCN)C(=O)N[C@H]1CCNC(=O)[C@H](Cc2c[nH]c3ccccc23)NC(=O)[C@H](CCN)NC(=O)[C@H](CCN)NC(=O)[C@H](CC(C)C)NC(=O)[C@@H](Cc2ccc3ccccc3c2)NC(=O)[C@H](CCN)NC1=O [compound 8113] ({Decanoyl(3R-OH)}-[dDab][Dab][Dab][d2Nal]L[Dab][Dab]W; lactam 2-C)	CC50 at 24 h	28
CCCCCCC[C@@H](O)CC(=O)N[C@H](CN)C(=O)N[C@H]1CCNC(=O)[C@H](Cc2c[nH]c3ccccc23)NC(=O)[C@H](CCN)NC(=O)[C@H](CCN)NC(=O)[C@H](CC(C)C)NC(=O)[C@@H](Cc2ccccc2)NC(=O)[C@H](CCN)NC1=O [compound 8886] ({Decanoyl(3R-OH)}-[dDap][Dab][Dab][dF]L[Dab][Dab]W; lactam 2-C)	CC50 at 24 h	95

Continue with the next compound.
Form field CC50 at 24 h, entry CCCCCCC[C@@H](O)CC(=O)N[C@H](CCN)C(=O)N[C@H]1CCNC(=O)[C@H](Cc2ccc3ccccc3c2)NC(=O)[C@H](CCN)NC(=O)[C@H](CCN)NC(=O)[C@H](CC(C)C)NC(=O)[C@@H](Cc2ccccc2)NC(=O)[C@H](CCN)NC1=O [compound 8908] ({Decanoyl(3R-OH)}-[dDab][Dab][Dab][dF]L[Dab][Dab][2Nal]; lactam 2-C) : 39
